System: A498 renal
Assay: NCI-60 one-dose screen, 48 h
Settings: 10 µM unless noted
The panel holds about 83,000 compounds, 20% with a hit somewhere; the sample as a whole holds those more often. The source made the active and inactive calls. Rule for the calls: active = growth percent below 10; inactive = the rest.
Labels: Y for active, N for inactive

INSERT INTO results (molecule, label) VALUES
  ('NC(N)=NCCCCCNc1noc(Cc2c[nH]c3cc(Br)ccc23)n1', 'N'),
  ('CC(C)C1=NOC(=O)C1=Cc1cn(-c2ccccc2)nc1-c1ccc(F)cc1', 'N'),
  ('COc1ccc(C2=C(Br)C(=O)c3nc(C)ccc3C2=O)cc1', 'N'),
  ('CCOC(=O)NC(C)C', 'N'),
  ('CCOC(=O)C/C(=N\Nc1cc(=O)[nH]c2ccc(Br)cc12)C(=O)OCC', 'N'),
  ('CSc1nc2ccccc2cc1/C=C1/C=C(c2ccccc2)NC1=O', 'N'),
  ('O=C1/C(=C/c2ccc([N+](=O)[O-])cc2)COc2ccc(O)cc21', 'N'),
  ('COc1ccc(/C=C/C(=O)c2cccc(OCCCCOc3cccc(C(=O)/C=C/c4ccc(OC)c(OC)c4)c3)c2)cc1OC', 'N'),
  ('C=CCOC(=O)Nc1cccn([C@H](Cc2ccccc2)C(=O)NCCC(C)C)c1=O', 'N'),
  ('CCOC(=O)c1c2c(n3cccc(F)c13)C(=O)c1ncccc1C2=O', 'N'),
  ('CC1(C)COB(OCC(C)(C)COB2OCC(C)(C)CO2)OC1', 'N'),
  ('CCOC(=O)C1=C(c2ccccc2)N=C2SC=C(c3ccc(Cl)cc3)N2C1c1ccc(Br)cc1 (centres undefined)', 'N'),
  ('C#CCOc1cccc(Nc2ncnc3ccc(NC(=O)C=C)cc23)c1', 'N'),
  ('CN1CCN(c2cc(Nc3cc(C4CC4)[nH]n3)nc(Nc3ccc(CC(=O)NCc4cccc(F)c4)cc3)n2)CC1', 'Y'),
  ('CN1C(=O)/C(=C\c2c(Cl)cccc2Cl)c2ccccc21', 'N'),
  ('CN(C)CC1CCC(CN(C)C)C1=O (centres undefined)', 'N'),
  ('O=C(/C=C/c1cccs1)Nc1ncc(Cc2ccccc2F)s1', 'Y'),
  ('N=C(N)c1ccc(-c2ccc(-c3ccc(Cl)c(Cl)c3)s2)nc1', 'N'),
  ('CCC(C(=O)[C@@H](C)[C@@H](O)[C@H](C)[C@@H]1O[C@@H]([C@@H](CC)C(=O)ONC(=O)c2ccccc2)CC[C@@H]1C)[C@H]1O[C@]2(C=CC(=O)[C@]3(CC[C@@](C)([C@H]4CC[C@](O)(CC)[C@H](C)O4)O3)O2)[C@H](C)C[C@@H]1C (some centres undefined)', 'N');

###

Test system: SW-620 colon
Assay: NCI-60 one-dose screen, 48 h (100 = growth as untreated, 0 = no growth, -100 = all killed)
Conditions: 10 µM unless noted
About 83,000 compounds went through this panel and 20% of them were active in at least one assay; those are over-represented in the sample as a whole.
property: growth (%)

INSERT INTO results (compound, observedmeasurement) VALUES
  ('NC(N)=NCCCCCNc1noc(Cc2c[nH]c3cc(Br)ccc23)n1', 92.2),
  ('Cc1csc(Nc2nc(-c3ccccn3)nc(C(Cl)(Cl)Cl)n2)n1', 86.3),
  ('OCCn1cc(-c2nc(-c3c[nH]c4ncccc34)cs2)c2cc(F)ccc21', 57.9),
  ('N#CSc1c[nH]c2cccc(/C=C/C(=O)/C=C(/C=C/c3cccc4[nH]cc(SC#N)c34)OB(F)F)c12', -35),
  ('CN(C)Cc1ccc(O)c(C(=O)O)c1', 106),
  ('N=C(N)c1ccc(-c2ccc(-c3ccccc3)o2)cc1', -75.7),
  ('Nc1n[nH]c2cccc(C#Cc3cccc(C(=O)Nc4cc(C(F)(F)F)cc(C(F)(F)F)c4)c3)c12', 78.6),
  ('COc1ccc(NC2=C(I)C(=O)c3ncccc3C2=O)cc1', -60.6),
  ('COc1ccc(C2CC(c3ccc(Nc4nc(Nc5ccccc5)nc(Nc5ccccc5)n4)cc3)=NN2C(C)=O)cc1 (centres undefined)', 104),
  ('COc1ccc(-c2nn(-c3cccc(Cl)c3)cc2-c2cc(-c3ccc(Br)cc3)nc(N)n2)cc1', 100),
  ('Cc1ccc(CNc2ccc3nc(CCC4CCCCC4)[nH]c3c2)cc1', 32.3),
  ('CCCOC(=O)Nc1nc2ccc(SCC(C)C)cc2s1', 33.8),
  ('CC(C)Cn1cnc2c(=O)[nH]c(N)nc21', 106),
  ('O=C(Nc1nc2ccccc2s1)c1ccc(F)cc1', 112);

###

Tested on: CCRF-CEM leukemia
Experiment: NCI-60 one-dose screen, 48 h
Conditions: 10 µM unless noted
Method: Growth inhibition of the CCRF-CEM human tumor cell line is measured as a screen for anti-cancer activity. Cells are grown in 96 well plates and exposed to the test compound for 48 hours. Compounds are tested at a single concentration, which is 10^-5 M for most compounds. The reported endpoint is percent growth (GI% or GIPRCNT), where numbers from 0 - 100% represent growth inhibition, and numbers from -100% - 0 represent cell death. For example, a value of 40 represents 60% growth inhibition. […]
The panel holds about 83,000 compounds, 20% with a hit somewhere; the sample as a whole holds those more often. Calls of active or inactive are those of the source. Rule for the calls: active = growth percent below 10; inactive = the rest.
Labels: T for active, F for inactive

INSERT INTO assay_data (moleculesmiles, label) VALUES
  ('O=S(=O)(Nc1ccc(F)cc1F)c1ccc(-c2cnc(C3CC3)o2)cc1', 'F'),
  ('CCCNc1nc2ccccc2c2c1S(=O)(=O)c1ccc(Cl)cc1C2=O', 'T'),
  ('COC(=O)[C@@H](CCCCNC(=O)[C@]12CCC(C)(C)C[C@@H]1C1=CC[C@@H]3[C@@]4(C)C/C(=C/c5ccco5)C(=O)C(C)(C)[C@@H]4CC[C@@]3(C)[C@]1(C)CC2)NC(=O)[C@]12CCC(C)(C)C[C@@H]1C1=CC[C@@H]3[C@@]4(C)C/C(=C/c5ccco5)C(=O)C(C)(C)[C@@H]4CC[C@@]3(C)[C@]1(C)CC2', 'F'),
  ('CN1C(=O)/C(=C\c2c(Cl)cccc2Cl)c2ccccc21', 'F');

###

Tested on: SF-539 CNS
Assay: NCI-60 one-dose screen, 48 h (100 = growth as untreated, 0 = no growth, -100 = all killed)
Conditions: 10 µM unless noted
Compounds without any hit were thinned out: in the full panel of roughly 83,000, 20% have a hit.
Rule for this label: rule met means growth is less than 70%; rule not met means growth is at least 70%.

INSERT INTO measurements (compound, studysystem, label) VALUES
  ('O=c1scc(-c2ccc(C(F)(F)F)cc2)s1', 'SF-539 CNS', 'rule not met'),
  ('COc1cc2oc(-c3cccc(NC(=O)c4ccccc4)c3)cc(=O)c2c(OC)c1OC', 'SF-539 CNS', 'rule met'),
  ('NNc1nc(-c2cccnc2)nc2c1sc(=S)n2-c1ccccc1', 'SF-539 CNS', 'rule not met'),
  ('COC(=O)c1cc(N=C2NC(=O)/C(=C/C=C/c3ccccc3)S2)ccc1O', 'SF-539 CNS', 'rule met'),
  ('COc1cc2c(cc1OCCCN1CCN(CCCOc3cc4c(cc3OC)C(=O)N3CC(F)(F)C[C@H]3C=N4)CC1)N=C[C@@H]1CC(F)(F)CN1C2=O', 'SF-539 CNS', 'rule met'),
  ('NC(=O)CSc1oc(-c2ccccc2)nc1S(=O)(=O)c1ccc(Br)cc1', 'SF-539 CNS', 'rule met'),
  ('COc1ccc2[nH]c(C(=O)N3CCN(C(=O)OCc4ccc5c(Cl)cc(Cl)c(O)c5n4)CC3)cc2c1', 'SF-539 CNS', 'rule met'),
  ('C1CCC([PH+](C2CCCCC2)C2CCCCC2[PH+](C2CCCCC2)C2CCCCC2)CC1.[Au].[CH-]1CCCCC1C1CCCC[N-]1 (stereo unspecified)', 'SF-539 CNS', 'rule met'),
  ('O=C(c1nn(-c2ccccc2)c2c1CC(NCc1ccc(F)cc1)CC2)N1CCCCC1 (stereo unspecified)', 'SF-539 CNS', 'rule not met'),
  ('CCN1CCN(C(=O)[C@]23CCC(C)(C)C[C@@H]2C2=CC[C@@H]4[C@@]5(C)CCC(=O)C(C)(C)[C@@H]5CC[C@@]4(C)[C@]2(C)CC3)CC1', 'SF-539 CNS', 'rule met'),
  ('CCCCCCCCCCC(CN(CC)CC)C(O)c1ccccc1 (stereo unspecified)', 'SF-539 CNS', 'rule met');

###

System: RXF 393 renal
Assay: NCI-60 one-dose screen, 48 h (100 = growth as untreated, 0 = no growth, -100 = all killed)
Conditions: 10 µM unless noted
The panel holds about 83,000 compounds, 20% with a hit somewhere; the sample as a whole holds those more often.
property: growth (%)

INSERT INTO measurements (moleculesmiles, observedmeasurement) VALUES
  ('CCOC(=O)c1cc2c(n1Cc1cc(OC)c(OC)c(OC)c1)-c1nc(N)sc1CCC2', 54.9),
  ('COc1ccc(C2=C(Nc3ccc(C(=O)Nc4ccccc4)cc3)C(=O)N(C)C2=O)cc1', 105),
  ('CCOC(=O)c1cc(C(=O)c2cc(OC)c(OC)c(OC)c2)n2ncccc12', -4.2),
  ('COc1ccc(/C=N\Nc2nc(SCCC(C)C)nc(-c3ccc(OC)cc3)c2C#N)cc1', 80.5);
